Data provenance: ChEMBL document CHEMBL5032510

- test-target: Mucosa-associated lymphoid tissue lymphoma translocation protein 1 (Homo sapiens, UniProt Q9UDY8)
- Sequence (Q9UDY8 whole entry, the tested form may be a part): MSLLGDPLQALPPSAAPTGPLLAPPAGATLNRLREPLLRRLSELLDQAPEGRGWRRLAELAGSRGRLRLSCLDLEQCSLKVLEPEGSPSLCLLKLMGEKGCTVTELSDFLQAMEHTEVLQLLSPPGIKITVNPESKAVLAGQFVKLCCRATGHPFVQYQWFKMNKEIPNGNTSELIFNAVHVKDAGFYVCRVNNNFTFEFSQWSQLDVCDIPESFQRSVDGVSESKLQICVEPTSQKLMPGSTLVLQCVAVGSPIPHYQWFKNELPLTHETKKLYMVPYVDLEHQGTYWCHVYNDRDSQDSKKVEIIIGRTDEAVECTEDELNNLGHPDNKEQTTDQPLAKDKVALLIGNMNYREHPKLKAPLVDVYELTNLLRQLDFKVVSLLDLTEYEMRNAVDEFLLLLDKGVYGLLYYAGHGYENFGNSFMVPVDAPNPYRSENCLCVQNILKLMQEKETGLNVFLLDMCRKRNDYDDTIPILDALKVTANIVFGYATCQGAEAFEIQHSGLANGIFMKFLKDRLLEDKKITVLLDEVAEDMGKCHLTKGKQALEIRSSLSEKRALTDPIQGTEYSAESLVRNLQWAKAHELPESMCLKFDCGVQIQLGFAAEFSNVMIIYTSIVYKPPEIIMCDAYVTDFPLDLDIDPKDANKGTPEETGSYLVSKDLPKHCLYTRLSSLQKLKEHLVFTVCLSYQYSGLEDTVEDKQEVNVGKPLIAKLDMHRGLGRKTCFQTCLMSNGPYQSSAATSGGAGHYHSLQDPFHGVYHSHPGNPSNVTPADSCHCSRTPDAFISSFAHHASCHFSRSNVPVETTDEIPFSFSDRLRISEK
- assay-protocol: Inhibition of N-terminal his-tagged GCN4 leucine zipper fused human MALT1 […] expressed in Escherichia coli using Ac-LVSR-AMC as substrate by HTS assay
Collected IC50 values appear next to each entry.
Hi! Could you send only the number? It should be in µM, unit omitted.

Examples from the recorded data:
COC(=O)c1ccc2c(=O)[nH]c3c(C(=O)Nc4ccc(-c5ccccc5)cc4)sc(=S)n3c2c1 : 6.4
COc1ccc(OC)c(NC(=O)c2sc(=S)n3c2[nH]c(=O)c2cc(Cl)ccc23)c1 : 3.2
COC(=O)c1ccc2c(=O)[nH]c3c(C(=O)Nc4ccc(F)cc4F)sc(=S)n3c2c1 : 12.2

Next, consider the following molecule.
Per the record, Cc1ccc(NC(=O)Nc2ccc3nc(N4CCN(C)CC4)cc(C)c3c2)cc1Cl has IC50 of 16.6

---

- assay-protocol: MRT (0 to t) in CD-1 mouse at 1 mg/kg, iv by LC-MS/MS analysis
- Type: ADME, organism-based
- condition-set: in vivo
parameter-measured: MRT last (h)
Hi! Could you send only the number? It should be in h, unit omitted.

Per the record, COc1ccc(OC)c(NC(=O)c2sc(=S)n(-c3ccc(C(F)(F)F)cc3)c2NC(=O)CCl)c1 has MRT last of 5.66

---

- System: OCI-Ly1
- assay-protocol: Antiproliferative activity against human OCI-Ly1 cells assessed as inhibition of cell growth incubated for 72 hrs by Celltiter-Glo luminescent assay
- Type: functional
Note to self: use fulfilled only for GI50 readings below 20 µM; a reading exactly at 20 µM still gets not fulfilled.

Answered examples (5):
O=C(Nc1cccc(F)c1)c1sc(=S)n2c1[nH]c(=O)c1cc(Br)ccc12 : fulfilled
Cc1ccc(NC(=O)c2sc(=S)n3c2[nH]c(=O)c2cc(Br)ccc23)c(C)c1 : not fulfilled
COC(=O)c1ccc2c(=O)[nH]c3c(C(=O)Nc4cc(OC)ccc4OC)sc(=S)n3c2c1 : fulfilled
COc1cc2c(=O)[nH]c3c(C(=O)Nc4cc(Cl)cc(Cl)c4)sc(=S)n3c2cc1OC : fulfilled
COc1ccc(OC)c(NC(=O)c2sc(=S)n3c2[nH]c(=O)c2cc(Cl)ccc23)c1 : not fulfilled

Problem: Say whether its GI50 is strictly beneath 20 µM. Entry: COC(=O)c1ccc2c(=O)[nH]c3c(C(=O)Nc4ccc(Cl)cc4)sc(=S)n3c2c1
Solution: fulfilled

Problem: Say whether its GI50 is strictly beneath 20 µM. Entry: COc1ccc(OC)c(NC(=O)c2sc(=S)n(-c3cccc(F)c3)c2NC(=O)CCl)c1
Solution: fulfilled

Problem: Say whether its GI50 is strictly beneath 20 µM. Entry: O=C(O)c1cccc(NC(=O)c2sc(=S)n3c2[nH]c(=O)c2cc(Br)ccc23)c1
Solution: not fulfilled

Problem: Say whether its GI50 is strictly beneath 20 µM. Entry: COc1ccccc1NC(=O)c1sc(=S)n2c1[nH]c(=O)c1cc(Cl)ccc12
Solution: not fulfilled

Problem: Say whether its GI50 is strictly beneath 20 µM. Entry: O=C(O)c1cccc(NC(=O)c2sc(=S)n3c2[nH]c(=O)c2ccc(Cl)cc23)c1
Solution: not fulfilled

Problem: Say whether its GI50 is strictly beneath 20 µM. Entry: O=C(NCc1ccco1)c1sc(=S)n2c1[nH]c(=O)c1cc(Br)ccc12
Solution: not fulfilled

Problem: Say whether its GI50 is strictly beneath 20 µM. Entry: O=C(Nc1cc(Cl)cc(Cl)c1)c1sc(=S)n2c1[nH]c(=O)c1ccccc12
Solution: fulfilled

Problem: Say whether its GI50 is strictly beneath 20 µM. Entry: O=C(Nc1ccc([N+](=O)[O-])cc1)c1sc(=S)n2c1[nH]c(=O)c1ccccc12
Solution: not fulfilled

Problem: Say whether its GI50 is strictly beneath 20 µM. Entry: Cc1ccc(NC(=O)Nc2ccc3nc(N4CCN(C)CC4)cc(C)c3c2)cc1Cl
Solution: fulfilled

---

- assay-protocol: Tmax in CD-1 mouse at 1 mg/kg, ip by LC-MS/MS analysis
- Format: ADME, organism-based
- condition-set: in vivo
parameter-measured: Tmax (min)
Hi! Could you send only the number? It should be in min, unit omitted.

Per the record, COc1ccc(OC)c(NC(=O)c2sc(=S)n(-c3ccc(C(F)(F)F)cc3)c2NC(=O)CCl)c1 has Tmax of 21

---

- assay-protocol: Half life in CD-1 mouse at 10 mg/kg, po by LC-MS/MS analysis
- Assay type: ADME, organism-based
- condition-set: in vivo
parameter-measured: half-life

Per the record, COc1ccc(OC)c(NC(=O)c2sc(=S)n(-c3ccc(C(F)(F)F)cc3)c2NC(=O)CCl)c1 has half-life of 2.83 h

---

- Test system: OCI-Ly1
- assay-protocol: Antiproliferative activity against human OCI-Ly1 cells assessed as inhibition of cell growth incubated for 72 hrs by Celltiter-Glo luminescent assay
- Assay type: functional
parameter-measured: GI50 (µM)
Hi! Could you send only the number? It should be in µM, unit omitted.

Examples from the recorded data:
O=C(Nc1cccc(F)c1)c1sc(=S)n2c1[nH]c(=O)c1ccc(Cl)cc12 : 12.4
COc1ccc(OC)c(NC(=O)c2sc(=S)n(-c3ccc(C(F)(F)F)cc3)c2NC(=O)CCl)c1 : 10.7
COc1ccc(OC)c(NC(=O)c2sc(=S)n(-c3cccc(C#N)c3)c2NC(=O)CCl)c1 : 11.8
CCc1ccccc1NC(=O)c1sc(=S)n2c1[nH]c(=O)c1cc(C)ccc12 : 31.3
COc1ccc(OC)c(NC(=O)c2sc(=S)n3c2[nH]c(=O)c2ccc(Cl)cc23)c1 : 20.7
COC(=O)c1ccc2c(=O)[nH]c3c(C(=O)Nc4ccc(-c5ccccc5)cc4)sc(=S)n3c2c1 : 34
CSc1ccc2c(c1)N(CCC1CCCCN1C)c1ccccc1S2 (centres undefined) [THIORIDAZINE] : 13.4
Cc1ccc(Cl)cc1NC(=O)c1sc(=S)n2c1[nH]c(=O)c1cc3c(cc12)OCO3 : 48

Next, consider the following compound.
Measured GI50 for this entry COc1ccc(OC)c(NC(=O)c2sc(=S)n3c2[nH]c(=O)c2cc(Br)ccc23)c1 on OCI-Ly1: 12.9

---

- assay-protocol: Half life in CD-1 mouse at 1 mg/kg, ip by LC-MS/MS analysis
- Type: ADME, organism-based
- condition-set: in vivo
parameter-measured: half-life (h)
Hi! Could you send only the number? It should be in h, unit omitted.

Per the record, COc1ccc(OC)c(NC(=O)c2sc(=S)n(-c3ccc(C(F)(F)F)cc3)c2NC(=O)CCl)c1 has half-life of 4.5

---

- assay-protocol: Cmax in CD-1 mouse at 1 mg/kg, ip by LC-MS/MS analysis
- Type: ADME, organism-based
- Set-up: route intraperitoneal, dose 1 mg/kg
- condition-set: in vivo
parameter-measured: Cmax (ng/mL)
Hi! Could you send only the number? It should be in ng/mL, unit omitted.

Per the record, COc1ccc(OC)c(NC(=O)c2sc(=S)n(-c3ccc(C(F)(F)F)cc3)c2NC(=O)CCl)c1 has Cmax of 336

---

- assay-protocol: Half life in CD-1 mouse at 1 mg/kg, iv by LC-MS/MS analysis
- Assay type: ADME, organism-based
- condition-set: in vivo
parameter-measured: half-life
Reply with the number, then its unit.

Per the record, COc1ccc(OC)c(NC(=O)c2sc(=S)n(-c3ccc(C(F)(F)F)cc3)c2NC(=O)CCl)c1 has half-life of 4.6 h

---

- assay-protocol: Cmax in CD-1 mouse at 10 mg/kg, po by LC-MS/MS analysis
- Format: ADME, organism-based
- Design: route oral, dose 10 mg/kg
- condition-set: in vivo
parameter-measured: Cmax (ng/mL)
Hi! Could you send only the number? It should be in ng/mL, unit omitted.

Per the record, COc1ccc(OC)c(NC(=O)c2sc(=S)n(-c3ccc(C(F)(F)F)cc3)c2NC(=O)CCl)c1 has Cmax of 1530

---

- test-target: Mucosa-associated lymphoid tissue lymphoma translocation protein 1 (Homo sapiens, UniProt Q9UDY8)
- assay-protocol: Inhibition of N-terminal his-tagged GCN4 leucine zipper fused human MALT1 […] expressed in Escherichia coli using Ac-LVSR-AMC as substrate by HTS assay
pIC50: −log10 of the molar value.
Assign true (1) to entries whose pIC50 meets or exceeds 5; assign false (0) to the rest.

COC(=O)c1ccc2c(=O)[nH]c3c(C(=O)Nc4ccc(Cl)cc4)sc(=S)n3c2c1 : true (1)
O=C(Nc1ccccc1Cl)c1sc(=S)n2c1[nH]c(=O)c1ccccc12 : false (0)
COc1ccccc1NC(=O)c1sc(=S)n2c1[nH]c(=O)c1ccccc12 : false (0)

Problem: In plain terms: is recorded pIC50 at least 5 for Cc1ccc(Cl)cc1NC(=O)c1sc(=S)n2c1[nH]c(=O)c1cc3c(cc12)OCO3 ?
Solution: true (1)

Problem: In plain terms: is recorded pIC50 at least 5 for O=C(Nc1ccc(Cl)cc1)c1sc(=S)n2c1[nH]c(=O)c1ccccc12 ?
Solution: false (0)

Problem: In plain terms: is recorded pIC50 at least 5 for COc1ccccc1CNC(=O)c1sc(=S)n2c1[nH]c(=O)c1cc(Cl)ccc12 ?
Solution: true (1)

Problem: In plain terms: is recorded pIC50 at least 5 for O=C(Nc1cccc(Cl)c1[N+](=O)[O-])c1sc(=S)n2c1[nH]c(=O)c1ccc(Cl)cc12 ?
Solution: true (1)

Problem: In plain terms: is recorded pIC50 at least 5 for O=C(Nc1ccc(Cl)c(Cl)c1)c1sc(=S)n2c1[nH]c(=O)c1ccccc12 ?
Solution: false (0)

Problem: In plain terms: is recorded pIC50 at least 5 for COc1ccc(OC)c(NC(=O)c2sc(=S)n(-c3ccc(Cl)cc3)c2NC(=O)CCl)c1 ?
Solution: true (1)
